Where do these numbers come from? They come from ChEMBL document CHEMBL1130231.

// reported pIC50 per item
Test Target: Gonadotropin-releasing hormone receptor (Rattus norvegicus, UniProt P30969)
Sequence (P30969 whole entry): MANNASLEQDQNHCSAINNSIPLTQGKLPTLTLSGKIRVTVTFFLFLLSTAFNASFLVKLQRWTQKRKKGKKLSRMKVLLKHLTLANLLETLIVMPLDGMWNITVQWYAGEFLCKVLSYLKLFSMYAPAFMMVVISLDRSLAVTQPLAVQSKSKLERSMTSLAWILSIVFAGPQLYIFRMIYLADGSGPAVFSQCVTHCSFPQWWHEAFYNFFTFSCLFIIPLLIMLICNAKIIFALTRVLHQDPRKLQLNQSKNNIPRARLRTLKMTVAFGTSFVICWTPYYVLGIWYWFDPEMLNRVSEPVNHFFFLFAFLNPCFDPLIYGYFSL
Experiment: Inhibition of binding of radiolabeled histrelin to Gonadotropin-releasing hormone receptor (GnRHr) in rat pituitary gland membranes
pIC50 here is simply -log10 of the concentration when that concentration is written in mol/L.

// worked examples, pIC50 included
Compound: CC(=O)Nc1ccc(C[C@H](NC(=O)[C@H](CO)NC(=O)[C@@H](Cc2cccnc2)NC(=O)[C@@H](Cc2ccc(Cl)cc2)NC(=O)[C@@H](Cc2ccc3ccccc3c2)NC(C)=O)C(=O)N[C@H](Cc2ccc(NC(C)=O)cc2)C(=O)N[C@@H](CC(C)C)C(=O)N[C@@H](CCCCNC(C)C)C(=O)N2CCC[C@H]2C(=O)N[C@H](N)C(N)=O)cc1
pIC50: 9.32

Compound: CC(=O)Nc1ccc(C[C@@H](NC(=O)[C@H](NC(=O)c2ccc(O)cc2)NC(=O)[C@H](CO)NC(=O)[C@@H](Cc2cccnc2)NC(=O)[C@@H](Cc2ccc(Cl)cc2)NC(=O)[C@@H](Cc2ccc3ccccc3c2)NC(C)=O)C(=O)N[C@@H](CC(C)C)C(=O)N[C@@H](CCCCNC(C)C)C(=O)N2CCC[C@H]2C(=O)N[C@H](C)C(N)=O)cc1
pIC50: 9.52

Compound: CC(=O)Nc1ccc(C[C@H](NC(=O)[C@@H](NC=O)NC(=O)[C@@H](Cc2cccnc2)NC(=O)[C@@H](Cc2ccc(Cl)cc2)NC(=O)[C@@H](Cc2ccc3ccccc3c2)NC(C)=O)C(=O)N[C@H](Cc2ccc(NC(C)=O)cc2)C(=O)N[C@@H](CC(C)C)C(=O)N[C@@H](CCCCNC(C)C)C(=O)N2CCC[C@H]2C(=O)N[C@H](C)C(N)=O)cc1 (single isomer, unassigned)
pIC50: 9.20

Compound: CN[C@@H](NC(=O)[C@@H]1CCCN1C(=O)[C@H](CCCCNC(C)C)NC(=O)[C@H](CC(C)C)NC(=O)[C@@H](Cc1ccc(NC(C)=O)cc1)NC(=O)[C@H](Cc1ccc(NC(C)=O)cc1)NC(=O)[C@H](CO)NC(=O)[C@@H](Cc1cccnc1)NC(=O)[C@@H](Cc1ccc(Cl)cc1)NC(=O)[C@@H](Cc1ccc2ccccc2c1)NC(C)=O)C(N)=O
pIC50: 9.05

Compound: CC(=O)Nc1ccc(C[C@H](NC(=O)[C@H](CO)NC(=O)[C@@H](Cc2cccnc2)NC(=O)[C@@H](Cc2ccc(Cl)cc2)NC(=O)[C@@H](Cc2ccc3ccccc3c2)NC(C)=O)C(=O)N[C@@H](C(=O)N[C@@H](CC(C)C)C(=O)N[C@@H](CCCCNC(C)C)C(=O)N2CCC[C@H]2C(=O)N[C@H](C)C(N)=O)N(C)C(=O)c2ccc(NC(C)=O)cc2)cc1 (mixture of isomers)
pIC50: 8.72

Request: Give the measured pIC50 of CC(=O)Nc1ccc(C[C@@H](NC(=O)[C@H](NC(=O)[C@H](CO)NC(=O)[C@@H](Cc2cccnc2)NC(=O)[C@@H](Cc2ccc(Cl)cc2)NC(=O)[C@@H](Cc2ccc3ccccc3c2)NC(C)=O)N(C)C(=O)c2ccc(NC(C)=O)cc2)C(=O)N[C@@H](CC(C)C)C(=O)N[C@@H](CCCCNC(C)C)C(=O)N2CCC[C@H]2C(=O)N[C@H](C)C(N)=O)cc1 .
Result: 9.37
